target entity: T1, recombinant human TIGIT (human, UniProt Q495A1 22-141, limits assumed)
T1 construct: recombinant human TIGIT used in Carterra SPR; also called hTIGIT
T1 sequence (looked up): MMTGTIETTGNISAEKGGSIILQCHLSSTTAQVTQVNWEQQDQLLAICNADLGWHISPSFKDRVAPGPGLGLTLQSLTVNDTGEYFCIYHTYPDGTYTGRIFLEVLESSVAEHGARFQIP
method summary: SPR Carterra, average
Reported kon values are given for each entry in this list.
measurement name: kon (M⁻¹ s⁻¹)

binder	measurement name	units text	measured result
TIGIT-SC31 (Fc fusion, VHH-Fc fusion in assay) VHH: EVQLVESGGGLVQPGGSLRLSCAASGRAFESYAMGWFRQAPGKERELVATIGWSGTDYADSVKGRFTISADNSKNTAYLQMNSLKPEDTAVYYCAKGYTSGLSDWGQGTLVTVSS	kon	M⁻¹ s⁻¹	1.31e+06
TIGIT-SC74 (Fc fusion, VHH-Fc fusion in assay) VHH: EVQLVESGGGLVQPGGSLRLSCAASGRTFANNAMGWFRQAPGKEREFVAAINWSGGNTYYADSVKGRFTISADNSKNTAYLQMNSLKPEDTAVYYCAKWSYYGSGLYGMDVWGQGTLVTVSS	kon	M⁻¹ s⁻¹	183000
